Target: T1, human soluble ULBP2 (hULBP2) (human, UniProt Q9BZM5 26-216)
T1 construct: also called sULBP2
T1 sequence: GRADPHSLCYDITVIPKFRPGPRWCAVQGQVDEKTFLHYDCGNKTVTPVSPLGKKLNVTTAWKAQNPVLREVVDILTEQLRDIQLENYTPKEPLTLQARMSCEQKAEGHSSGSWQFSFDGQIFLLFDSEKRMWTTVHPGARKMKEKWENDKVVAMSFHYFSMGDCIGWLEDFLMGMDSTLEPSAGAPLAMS
Test: SPR (BIACORE);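 also: soluble human and cynomolgus NKG2D ligands injected as analytes in 3-fold dilution series spanning 0.01 to 50 nM at 37 °C, reference-subtracted sensorgrams fitted to a 1:1 Langmuir model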
assayEndpoint: pKd
Scale note: pKd = -log10(concentration in M).

Incoming: Could you tell me which pKd is on file for Humanized 6E1 (h6E1) (E-) (antibody, human IgG1, kappa, N297G, V domains shown, hIgG1 with N297G (effector negative)) VH: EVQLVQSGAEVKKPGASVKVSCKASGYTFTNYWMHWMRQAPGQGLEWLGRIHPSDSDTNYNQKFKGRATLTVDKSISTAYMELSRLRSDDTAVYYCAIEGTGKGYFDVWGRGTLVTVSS VL: DIQMTQSPSSLSASVGDRVTITCKASQDIYSYLSWFQQKPGKSPKTLIYRANRLVDGVPSRFSGSGSGQDFTLTISSLQPEDFATYYCLHYDEFPLTFGGGTKVEIKR ?
Outgoing: 8.05
